system: OVCAR-3 ovarian; assay: NCI tumour cell line growth inhibition, 48 h
Give measured TGI for each item. Keep answers brief.
Entry rule: numbers only, all in µM.

Q) Any idea what TGI was measured for `CC[C@@]1(OC(=O)CN)C(=O)OCc2c1cc1n(c2=O)Cc2cc3cc(N)ccc3nc2-1` ?
A) 0.848

Q) Fill in: TGI of `Cn1c(=O)c2c3oc(=O)cc(O)c3c(=O)n3c4ccccc4n(c1=O)c23` is ___
A) 78.6

Q) I am curious: what TGI value has been reported for `O=C1OC(c2ccc(O)cc2)(c2ccc(O)cc2)c2cccc3cccc1c23` ?
A) 19.9

Q) # query: TGI of entry `CC[C@]12C=CCN3CC[C@]4(C(=C(C(=O)OC)C1)Nc1cc(O)ccc14)[C@@H]32`
A) 33.9

Q) Param item = `Cc1[nH]c(=O)nc(N/N=C/c2ccc(Cl)c(Cl)c2)c1C(=O)Nc1ccc(Cl)c(Cl)c1` ; retrieve measured TGI.
A) 24.5

Q) If you can, please state the reported TGI value of `C/C(=C(/c1ccc(O)cc1)c1ccc(OCCN2CCCC2)cc1)c1ccccc1` .
A) 18.1

Q) TGI lookup needed for `COc1ccc2nc3ccc(OC)cc3c(SCCCN)c2c1` , thanks.
A) 6.88

Q) Which TGI reading was recorded for the compound `COC(=O)c1cc(Nc2ccc(O)c3c2C(=O)c2c([N+](=O)[O-])ccc(O)c2C3=O)cc(C(=O)OC)c1` ?
A) 21.3

Q) Find the recorded TGI belonging to COc1cc(C(c2cc3c(cc2O)OCO3)N2CCCC2)cc(OC)c1OC (configuration not stated) and report it.
A) 34.9

Q) Need TGI of N#CC1c2ccccc2-c2ccccc2N1C(=O)c1ccccc1 (configuration not stated) , thanks.
A) 2.47

Q) Quick one: TGI for `Cc1ccc2ccccc2c1CC1S(=O)(=O)OCCOS1(=O)=O` ?
A) 19.5

====

system: K-562 leukemia; test: NCI tumour cell line growth inhibition, 48 h; in the data active = GI50 below about 0.43 µM; inactive = the rest
Assign a class; possible classes are label 1 (active), label 0 (inactive)

Q) Assay outcome for `CCN(CC)CCC(=O)Nc1ccc(Cn2nnc3c2C(=O)c2nnn(Cc4ccc(NC(=O)CCN(CC)CC)cc4)c2C3=O)cc1` : what was it?
A) label 0

Q) Each molecule tested received a call. Report the one for `O=C(/C=C/N1CCN(c2cccc(C(F)(F)F)c2)CC1)c1ccc(Cl)cc1Cl` .
A) label 0

Q) # outcome recorded in this test, key = COc1cc(C2C3=C(COC3=O)N(CCO)c3cc4c(cc32)CCC4)cc(OC)c1O (centres undefined)
A) label 1

Q) For `O=C1c2cccnc2C(=O)c2c1c(C(=O)OCCCN1CCOCC1)c1ccccn21` , which call appears in the assay record?
A) label 1

Q) Assay result, entry `C[C@@H](NC(=O)Cc1cc(F)cc(F)c1)C(=O)N[C@@]1(C)N=C(c2ccccc2)c2ccccc2N(C)C1=O` — outcome?
A) label 0

Q) Just curious, what result did `COc1ccc(C[C@H]2C[C@@H](O)[C@@H](C)C/C=C/Cc3cccc(O)c3C(=O)O2)cn1` get here?
A) label 0

Q) Hey, what did the test say about Cc1nn(-c2ccccc2)c2c1C1C(=C(c3ccc(Cl)cc3)N2)C(=O)Nc2ccccc21 (centres undefined) ?
A) label 0

Q) In this assay, the call recorded for `CC(=O)[CH-]C(=O)c1ccccc1.CC(=O)[CH-]C(=O)c1ccccc1.[O]=[U+2]=[O]` was what?
A) label 0

Q) Returns: the outcome recorded for `COc1cc[nH]c1/C=C1\C(=O)Nc2ccc(F)c(C#CC3(O)CCOCC3)c21` in this assay.
A) label 0
